MEASURED ON: Catechol O-methyltransferase (Rattus norvegicus)
Sequence (P22734 whole entry): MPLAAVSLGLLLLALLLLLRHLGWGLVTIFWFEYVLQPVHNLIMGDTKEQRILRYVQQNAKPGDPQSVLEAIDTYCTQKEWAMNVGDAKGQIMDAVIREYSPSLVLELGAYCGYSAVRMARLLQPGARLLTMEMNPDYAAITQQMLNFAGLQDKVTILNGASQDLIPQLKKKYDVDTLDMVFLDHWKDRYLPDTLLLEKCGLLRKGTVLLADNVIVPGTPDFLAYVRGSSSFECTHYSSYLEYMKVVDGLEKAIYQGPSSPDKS
MEASURED PARAMETER: pKi
Quick note: pKi values are minus log10 of concentrations in mol/L.

# TEST SMILES, pKi
data = [
    ("Cc1c(O)c(O)cc2cc[nH]c12", 2.94),
]

Exam item: Give the reported pKi for "NCCc1c[nH]c2cc(O)c(O)cc12" (system: Catechol O-methyltransferase (Rattus norvegicus)).
Marked response: 3.48

* * *

MEASURED ON: Catechol O-methyltransferase (Rattus norvegicus) (UniProt P22734)
Sequence (whole entry): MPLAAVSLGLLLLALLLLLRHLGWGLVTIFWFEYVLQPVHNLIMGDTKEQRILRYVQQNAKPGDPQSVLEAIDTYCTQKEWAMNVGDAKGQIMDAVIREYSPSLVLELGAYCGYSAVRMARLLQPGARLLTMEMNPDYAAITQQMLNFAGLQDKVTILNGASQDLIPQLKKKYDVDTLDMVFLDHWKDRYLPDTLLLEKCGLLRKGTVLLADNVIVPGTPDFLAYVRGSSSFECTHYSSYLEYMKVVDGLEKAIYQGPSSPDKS
EXPERIMENT: Kinetic constants for the inactivation of Catechol O-methyltransferase by the compound
MEASURED PARAMETER: K2 (min⁻¹)
Unit min⁻¹ implied. Number only.

Example results:
# TEST SMILES, UNIT ABBREVIATION, VALUE MEASURED
records = [
    ("Cc1c(O)c(O)c(C)c2[nH]ccc12", "min⁻¹", 1.12),
    ("Cc1c(O)c(O)cc2cc[nH]c12", "min⁻¹", 0.16),
    ("Oc1cc2cc[nH]c2cc1O", "min⁻¹", 0.55),
]

Exam item: K2 lookup needed for "NCCc1c[nH]c2cc(O)c(O)cc12" , thanks.
Marked response: 0.086

* * *

MEASURED ON: Catechol O-methyltransferase (Rattus norvegicus) (UniProt P22734)
EXPERIMENT: Evaluated for its ability to inactivate Catechol O-methyltransferase under anaerobic conditions, after 60 min at 37 degree. C
Design: concentration or dose not given beside the values
MEASURED PARAMETER: residual activity (%)
Numbers only; they are read as %.

// below: answered molecules
# TEST SMILES, MEASURED ON, UNIT ABBREVIATION, residual activity
data = [
    ("Cc1c(O)c(O)cc2cc[nH]c12", "Catechol O-methyltransferase (Rattus norvegicus) (UniProt P22734)", "%", 84),
    ("NCCc1c[nH]c2cc(O)c(O)cc12", "Catechol O-methyltransferase (Rattus norvegicus) (UniProt P22734)", "%", 89),
    ("Cc1c(O)c(O)cc2[nH]ccc12", "Catechol O-methyltransferase (Rattus norvegicus) (UniProt P22734)", "%", 81),
    ("Cc1c(O)c(O)c(C)c2[nH]ccc12", "Catechol O-methyltransferase (Rattus norvegicus) (UniProt P22734)", "%", 96),
]

Exam item: Which residual activity is listed for "Oc1cc2cc[nH]c2cc1O" ?
Marked response: 96

* * *

MEASURED ON: Catechol O-methyltransferase (Rattus norvegicus) (UniProt P22734)
EXPERIMENT: Compound was evaluated for its ability to inactivate Catechol O-methyltransferase after dialysis
// reported residual activity for each item listed
Write the value in c.p.m. as a bare number.

# TEST SMILES, MEASURED ON, residual activity, c.p.m.
data = [
    ("Oc1cc2cc[nH]c2cc1O", "Catechol O-methyltransferase (Rattus norvegicus) (UniProt P22734)", 228),
]

Exam item: Request the reported residual activity associated with "NCCc1c[nH]c2cc(O)c(O)cc12"
Marked response: 232

Exam item: Look up residual activity for this compound: "Cc1c(O)c(O)cc2cc[nH]c12"
Marked response: 262
